Biological target: ZmDRIK1 (DROUGHT RESPONSIVE INACTIVE KINASE 1), kinase domain (Zea mays)
Construct: gene ZEAMMB73_Zm00001d028770; ZmDRIK1-KD R187-S514 (kinase domain)
Sequence (C0P4K9 187-514): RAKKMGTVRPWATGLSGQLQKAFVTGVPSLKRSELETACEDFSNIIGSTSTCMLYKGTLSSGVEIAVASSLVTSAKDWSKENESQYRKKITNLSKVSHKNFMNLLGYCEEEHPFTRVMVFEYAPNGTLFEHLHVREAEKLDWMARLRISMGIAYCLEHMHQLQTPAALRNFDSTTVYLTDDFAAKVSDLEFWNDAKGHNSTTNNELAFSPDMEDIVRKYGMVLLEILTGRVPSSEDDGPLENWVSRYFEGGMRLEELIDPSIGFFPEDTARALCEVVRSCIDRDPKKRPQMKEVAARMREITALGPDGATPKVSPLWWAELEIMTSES
Assay: biochemical
Conditions: read-out: dTm B, sheet ZmDRIK1-R187-S514;; DSF, Boltzmann fit, 0.1% DMSO
Where a name gives a salt, the structure may show the parent alone.
readoutName: ΔTm at 10 µM (°C)

Some solved entries appear below for comparison.
compound	unitLabel	ΔTm at 10 µM
CN1CC[C@H](c2c(O)cc(O)c3c(=O)cc(-c4ccccc4Cl)oc23)[C@H](O)C1 [Flavopiridol HCl]	°C	-0.837
COC(=O)c1ccc2c(c1)NC(=O)/C2=C(\Nc1ccc(N(C)C(=O)CN2CCN(C)CC2)cc1)c1ccccc1 [Nintedanib (BIBF 1120)]	°C	-0.677
O=C(NC[C@H](O)CO)c1ccncc1Nc1ccc(I)cc1F [Pimasertib (AS-703026)]	°C	-0.651
Cc1ccccc1-n1c(Cn2ncc3c(N)ncnc32)nc2cccc(C)c2c1=O [PIK-293]	°C	-1.14
CNCc1ccc(-c2cc(-c3nc(-c4ccc(S(=O)(=O)C(C)C)cc4)cnc3N)on2)cc1 [VE-822]	°C	-0.91
Cn1cnc2c(F)c(Nc3ccc(Br)cc3Cl)c(C(=O)NOCCO)cc21 [Selumetinib (AZD6244)]	°C	-0.69

(P) C=CCc1ccc(O)c(-c2ccc(O)c(CC=C)c2)c1 [Honokiol]
(Q) Cc1ccc(C(=O)Nc2ccc(CN3CCN(C)CC3)c(C(F)(F)F)c2)cc1C#Cc1cnc2[nH]ncc2c1 [GZD824]
Exam item: Thinking about recorded ΔTm at 10 µM values, which is higher, P or Q ? Your answer should be the label attached to the chosen record.
Marked response: P
(P: -0.751 °C, Q: -1.61 °C)

These data points were gathered from paper PMC7158045.
